test system: primary astrocytes; assay: Extracellular lactate quantification; type: cell-based, mouse; conditions: Appendix II, CDC54K library
Task for the reader: assign each of the following compounds its reported Score Lact..
Answer with a number only.

## Input For CCN1C(=O)c2cccc3c(S(=O)(=O)Nc4ccc(OC)cc4OC)ccc1c23 , what is its reported Score Lact.?
## Output 0.44

## Input Another compound to check: CCN(CC)C(=O)c1nc(CNC(=O)c2ccc3ccccc3n2)oc1C
## Output 0.36

## Input Another compound to check: CCCC(=O)NC1=NC(c2ccc3c(c2)CCO3)=CC1
## Output 0.38

## Input Another compound to check: Br.CCOc1ccc(C2(O)C(C)C3=C(CCN3)N2c2ccc(OC)cc2)cc1 (stereo not shown)
## Output 0.61

## Input Another compound to check: COc1ccc(CC(=O)Nc2ccc(C)c(C)c2)cc1OC
## Output 0.34

## Input Another compound to check: Cc1[nH]c2nc(CNc3nc4ccccc4c(=O)n3C)[nH]c(=O)c2c1C
## Output 0.46

## Input Another compound to check: CCNc1cc(C)nc(Nc2ccc(NC(=O)Cc3ccccc3)cc2)n1
## Output 0.54

## Input Another compound to check: CCn1c(=O)c(C)nc2cc(C(=O)N(Cc3ccc(C)cc3)C3CC3)ccc21
## Output 0.45

## Input Another compound to check: Cc1ccc(-c2c[nH]c(NC(=O)c3ccncc3)n2)cc1[N+](=O)[O-]
## Output 0.47

## Input Another compound to check: Cn1nc(C(=O)Nc2ccc(Oc3ccccc3Cl)cc2)ccc1=O
## Output 1.01

## Input Another compound to check: Cc1cccc(NS(=O)(=O)c2ccc(F)c(Cl)c2)c1
## Output 0.33

## Input Another compound to check: O=C(Nc1ccc(S(=O)(=O)NCC2CCCO2)cc1)c1ccccc1 (stereo not shown)
## Output 0.43

## Input Another compound to check: COc1ccccc1NC(=O)CO/N=C(/N)c1cccc(C(C)(F)F)c1
## Output 0.55

Reference source: patent US12310967B2
